biological target: β-secretase (BACE) (Homo sapiens); construct: purchased Panvera; assay: In Vitro BACE Assay, Ki (Example 16); format: biochemical; details: FS1 substrate, pH5
Quantity measured: Ki (µM)

> print(dat)
                                   compound  measured.value
1  Nc1nc2ccc(Oc3ccccc3)cc2cc1CCC(=O)NC1C2CC3CC(C2)CC1C3 (centres unmarked)            0.23
2  Nc1nc2ccc(Oc3ccccc3)cc2cc1C(CCC(=O)NC1C2CC3CC(C2)CC1C3)C1CCCCC1 (centres unmarked)            0.28

====

molecular target: human BACE-1 (Homo sapiens); experiment: In Vitro BACE Assay run by CEREP (Example 19); conditions: recombinant enzyme, pH 4.5
Sequence (P56817 46-501): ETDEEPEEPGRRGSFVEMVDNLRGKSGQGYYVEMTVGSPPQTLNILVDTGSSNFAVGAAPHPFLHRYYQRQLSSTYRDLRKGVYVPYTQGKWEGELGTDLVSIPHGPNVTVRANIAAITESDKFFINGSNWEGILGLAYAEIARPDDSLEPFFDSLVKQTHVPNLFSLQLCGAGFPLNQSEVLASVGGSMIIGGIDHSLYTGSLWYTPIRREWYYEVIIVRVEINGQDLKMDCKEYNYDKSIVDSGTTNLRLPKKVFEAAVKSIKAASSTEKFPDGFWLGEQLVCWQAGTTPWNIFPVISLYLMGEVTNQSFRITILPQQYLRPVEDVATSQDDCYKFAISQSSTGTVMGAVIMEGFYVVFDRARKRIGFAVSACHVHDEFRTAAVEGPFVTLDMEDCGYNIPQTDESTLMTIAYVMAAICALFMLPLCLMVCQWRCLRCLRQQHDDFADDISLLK
pIC50: −log10 of the molar value.
Quantity measured: pIC50

Illustrative cases are given below, each with its answer.
> print(dat)
                                   compound  quantity.measured  measured.value
1  Nc1nc2ccc(Oc3ccccc3)cc2cc1C(CCCC(=O)N(CCN1CCCC1)C1CCCCC1)C1CCOCC1 (stereo not drawn) [compound 91]              pIC50            5.96
2  Cn1ccnc1CN(CCC(C)(C)C)C(=O)CC[C@H](c1cc2cc(Oc3ccccc3)ccc2nc1N)C1CCOCC1 [compound 86]              pIC50            6.66
3  CC(C)C(CO)NCCCC(c1cc2cc(Oc3ccccc3)ccc2nc1N)C1CCOCC1 (stereo not drawn) [compound 96]              pIC50            5.77
4  Nc1nc2ccc(Oc3ccccc3)cc2cc1C(CCC(=O)N(CCO)C1CCCCC1)C1CCOCC1 (stereo not drawn) [compound 50]              pIC50            6.13
5  CN(C(=O)CCCC(c1cc2cc(Oc3ccccc3)ccc2nc1N)C1CCCCC1)C1CCCCC1 (stereo not drawn) [compound 40]              pIC50            6.19

[a] CC(C)(C)c1cc(CCC(c2cc3cc(Oc4ccccc4)ccc3nc2N)C2CCOCC2)on1 (stereo not drawn) [compound 156]
[b] CC(C)(C)CCN(CCCC(c1cc2cc(Oc3ccccc3)ccc2nc1N)C1CCOCC1)CCN1CCCC1 (stereo not drawn) [compound 93]
Input: Dear colleague, could you let me know whether a or b has the lower recorded pIC50? Thanks. State your choice using its label.
Output: a

Data provenance: patent US7868022B2
